test_target: ROR gamma ligand-binding domain (hRORg) (Homo sapiens (Human))
experiment_description: GAL4-RORγ transactivation (luciferase reporter, HG5LN HeLa line)
Type: cell-based
measurement_context: 18 hours incubation
property_name: IC50

The following compounds have reported results that may help.
CCc1ccc(N(CC(C)C)S(=O)(=O)c2ccc(NCc3ccncc3)c(S(C)(=N)=O)c2)cc1 (stereo not shown): < 100 nM
CCc1ccc(N(CC(C)C)S(=O)(=O)c2ccc3c(c2)NC(=O)CS3)cc1: > 1000 nM
CCc1ccc(N(CC(C)C)S(=O)(=O)c2ccc(NCc3ccnc(C)c3)c(S(C)(=N)=O)c2)cc1 (stereo not shown): > 1000 nM
CCc1ccc(N(CC(C)C)S(=O)(=O)c2ccc(NCC3CCN(C(=O)OC)C3)c(S(C)(=N)=O)c2)cc1 (stereo not shown): > 1000 nM
CCc1ccc(N(CC(C)C)S(=O)(=O)c2ccc(NCC3CCC(=O)NC3)c(S(C)(=N)=O)c2)cc1 (stereo not shown): > 1000 nM
CCc1ccc(N(CC(C)C)S(=O)(=O)c2ccc(N3CCC(O)CC3)c(S(C)(=N)=O)c2)cc1 (stereo not shown): > 1000 nM

Let us examine a further case.
Please give the measured IC50 for this compound: CCc1ccc(N(CC(C)C)S(=O)(=O)c2ccc(NCc3ccncn3)c(S(C)(=N)=O)c2)cc1 (stereo not shown)
< 100 nM

* * *

test_target: hERG (Homo sapiens (Human), UniProt Q12809)
Sequence (Q12809 whole entry): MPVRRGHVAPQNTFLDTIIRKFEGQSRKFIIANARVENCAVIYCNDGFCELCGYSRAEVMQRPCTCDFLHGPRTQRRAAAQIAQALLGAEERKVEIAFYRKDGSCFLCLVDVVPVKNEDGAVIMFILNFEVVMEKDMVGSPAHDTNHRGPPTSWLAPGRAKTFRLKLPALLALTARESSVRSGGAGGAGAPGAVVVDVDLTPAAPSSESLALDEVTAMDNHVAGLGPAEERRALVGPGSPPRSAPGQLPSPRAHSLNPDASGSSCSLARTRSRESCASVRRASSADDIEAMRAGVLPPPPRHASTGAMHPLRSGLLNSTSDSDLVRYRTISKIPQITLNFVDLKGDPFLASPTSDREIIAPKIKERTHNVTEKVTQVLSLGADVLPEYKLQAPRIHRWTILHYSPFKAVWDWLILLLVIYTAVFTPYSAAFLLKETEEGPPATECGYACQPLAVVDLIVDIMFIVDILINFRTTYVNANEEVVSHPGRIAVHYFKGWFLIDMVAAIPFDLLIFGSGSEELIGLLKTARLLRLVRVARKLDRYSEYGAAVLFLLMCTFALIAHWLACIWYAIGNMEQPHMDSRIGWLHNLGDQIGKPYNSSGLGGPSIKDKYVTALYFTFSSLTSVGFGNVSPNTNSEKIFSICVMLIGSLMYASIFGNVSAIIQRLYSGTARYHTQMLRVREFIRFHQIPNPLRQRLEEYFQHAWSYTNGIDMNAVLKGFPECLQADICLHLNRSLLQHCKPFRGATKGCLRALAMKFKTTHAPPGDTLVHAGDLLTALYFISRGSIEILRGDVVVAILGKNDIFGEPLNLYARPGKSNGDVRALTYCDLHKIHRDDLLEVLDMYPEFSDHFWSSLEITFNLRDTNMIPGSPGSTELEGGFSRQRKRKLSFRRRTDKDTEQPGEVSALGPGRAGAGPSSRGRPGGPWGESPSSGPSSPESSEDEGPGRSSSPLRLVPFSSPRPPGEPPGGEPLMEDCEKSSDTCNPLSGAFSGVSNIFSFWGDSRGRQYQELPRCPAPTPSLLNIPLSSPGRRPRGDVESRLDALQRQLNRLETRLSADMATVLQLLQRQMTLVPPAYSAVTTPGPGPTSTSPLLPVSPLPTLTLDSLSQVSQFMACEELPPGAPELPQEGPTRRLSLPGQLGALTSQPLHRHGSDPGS
experiment_description: hERG test, patch clamp on CHO-K1 cells
Format: cell-based
measurement_context: human, CHO-K1 cells transfected with the hERG gene
property_name: IC50 at 5 min (µM)
The response must be a number in µM with no trailing unit.

Please give the measured IC50 at 5 min for this molecule: CCc1ccc(N(CC(C)C)S(=O)(=O)c2ccc(OCC3CCSCC3)c(S(C)(=N)=O)c2)cc1 (stereo not shown)
11.8

* * *

test_target: ROR gamma ligand-binding domain (hRORg) (Homo sapiens (Human), UniProt P51449)
Sequence (P51449 269-508): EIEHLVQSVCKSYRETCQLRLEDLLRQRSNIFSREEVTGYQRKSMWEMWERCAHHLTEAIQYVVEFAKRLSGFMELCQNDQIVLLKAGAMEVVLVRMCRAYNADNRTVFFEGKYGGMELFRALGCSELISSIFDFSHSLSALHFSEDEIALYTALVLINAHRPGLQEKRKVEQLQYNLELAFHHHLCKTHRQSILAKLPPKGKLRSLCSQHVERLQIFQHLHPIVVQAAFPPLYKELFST
experiment_description: GAL4-RORγ transactivation (luciferase reporter, HG5LN HeLa line)
measurement_context: 18 hours incubation
pIC50: −log10 of the molar value.
Each record here notes measured pIC50.

The following compounds have reported results that may help.
CCc1ccc(N(CC(C)C)S(=O)(=O)c2ccc(NC[C@H]3CNC(=O)O3)c(S(C)(=N)=O)c2)cc1 (stereo partly shown): < 6.00
CCc1ccc(N(CC(C)C)S(=O)(=O)c2ccc(NCC3COC3)c(S(C)(=N)=O)c2)cc1 (stereo not shown): 6.00 to 7.00
CCc1ccc(N(CC(C)C)S(=O)(=O)c2ccc(NCC3(N4CCCC4)COC3)c(S(C)(=N)=O)c2)cc1 (stereo not shown): < 6.00

Please give the measured pIC50 for this compound: CCc1ccc(N(CC(C)C)S(=O)(=O)c2ccc(OCC3(C)COC3)c(S(C)(=N)=O)c2)cc1 (stereo not shown)
< 6.00

Please give the measured pIC50 for this compound: CCc1ccc(N(CC(C)C)S(=O)(=O)c2ccc(OC[C@H]3[C@@H]4COC[C@@H]43)c(S(C)(=N)=O)c2)cc1 (stereo partly shown)
> 7.00

Please give the measured pIC50 for this compound: Cc1ccc(N(CC(C)C)S(=O)(=O)c2ccc(OCC3CCOCC3)c(S(C)(=N)=O)c2)c(C)c1 (stereo not shown)
> 7.00

Please give the measured pIC50 for this compound: CCc1ccc(N(CC(C)C)S(=O)(=O)c2ccc(N3CCCC4(COC4)C3)c(S(C)(=N)=O)c2)cc1 (stereo not shown)
< 6.00

* * *

test_target: ROR gamma ligand-binding domain (hRORg) (Homo sapiens (Human), UniProt P51449)
experiment_description: GAL4-RORγ transactivation (luciferase reporter, HG5LN HeLa line)
measurement_context: 18 hours incubation
pIC50: −log10 of the molar value.
Each record here notes measured pIC50.

The following compounds have reported results that may help.
CCc1ccc(N(CC(C)C)S(=O)(=O)c2ccc(N3CC4(CN(C(C)=O)C4)C3)c(S(C)(=N)=O)c2)cc1 (stereo not shown) [compound 122]: < 6.00
CCc1ccc(N(CC(C)C)S(=O)(=O)c2ccc(N3CC[C@@H](O)C3)c(S(C)(=N)=O)c2)cc1 (stereo partly shown) [compound 130]: < 6.00
CCc1ccc(N(CC(C)C)S(=O)(=O)c2ccc(N3CCSCC3)c(S(C)(=N)=O)c2)cc1 (stereo not shown) [compound 87]: > 7.00
CCc1ccc(N(CC(C)C)S(=O)(=O)c2ccc(N3CCCOCC3)c(S(C)(=N)=O)c2)cc1 (stereo not shown) [compound 137]: 6.00 to 7.00
CCc1ccc(N(CC(C)C)S(=O)(=O)c2ccc(N3CC4(C3)CS(=O)(=O)C4)c(S(C)(=N)=O)c2)cc1 (stereo not shown) [compound 113]: 6.00 to 7.00

For ROR gamma ligand-binding domain (hRORg) (Homo sapiens (Human), UniProt P51449), provide pIC50 of CCc1ccc(N(CC(C)C)S(=O)(=O)c2ccc(OCC3C4COCC43)c(S(C)(=N)=O)c2)cc1 (stereo not shown) [compound 31] please.
> 7.00

For ROR gamma ligand-binding domain (hRORg) (Homo sapiens (Human), UniProt P51449), provide pIC50 of CCc1ccc(N(CC(C)C)S(=O)(=O)c2ccc(OCC3CCNCC3)c(S(C)(=N)=O)c2)cc1 (stereo not shown) [compound 49] please.
< 6.00

* * *

test_target: ROR gamma ligand-binding domain (hRORg) (Homo sapiens (Human), UniProt P51449)
experiment_description: GAL4-RORγ transactivation (luciferase reporter, HG5LN HeLa line)
measurement_context: 18 hours incubation
Each record here notes measured IC50.

The following compounds have reported results that may help.
COc1ccc(N(C(C)C)S(=O)(=O)c2ccc(OCC3CCOCC3)c(S(C)(=N)=O)c2)c(C)c1 (stereo not drawn) [compound 143]: 100 to 1000 nM
CCc1ccc(N(CC(C)C)S(=O)(=O)c2ccc(NCC3(OC)CCOCC3)c(S(C)(=N)=O)c2)cc1 (stereo not drawn) [compound 125]: 100 to 1000 nM
CCc1ccc(N(CC(C)C)S(=O)(=O)c2ccc(NCC3CSC3)c(S(C)(=N)=O)c2)cc1 (stereo not drawn) [compound 99]: < 100 nM

Please give the measured IC50 for this compound: CCc1ccc(N(CC(C)C)S(=O)(=O)c2ccc(NCC3CNC(=O)O3)c(S(C)(=N)=O)c2)cc1 (stereo not drawn) [compound 82]
100 to 1000 nM

Please give the measured IC50 for this compound: CCc1ccc(N(CC(C)C)S(=O)(=O)c2ccc(OCC3CCOCC3)c(SC)c2)cc1 [compound 25]
100 to 1000 nM

Please give the measured IC50 for this compound: CCc1ccc(N(CC(C)C)S(=O)(=O)c2ccc3c(c2)[S+]([O-])CN3CC2CCOCC2)cc1 (stereo not drawn) [compound 75]
> 1000 nM
